molecular target: partially purified rat brain farnesyl protein transferase (FPT) (Rattus norvegicus, UniProt Q02293+Q04631); construct: partially purified rat brain farnesyl protein transferase (FPT); assay: FPT IC50 in vitro enzyme assay (inhibition of Ras-CVLS farnesylation); conditions: inhibition of Ras-CVLS famesylation; methods of WO/10515 or WO 95/10516
experimental-endpoint: IC50

Worked cases, answers included:
CCCC(=O)N1CCN(Cc2ccccc2)CC1C(=O)NCCc1cncn1Cc1ccc(C#N)cc1 (stereo not shown) [Example 28F] | 0.18 to 21 nM
N#Cc1ccc(Cn2cncc2CCNC(=O)C2CN(Cc3ccccc3)CCN2C(=O)Cc2ccccc2)cc1 (stereo not shown) [Example 28I] | 0.18 to 21 nM
CC(C)(C)NC(=O)N1CCN(Cc2ccccc2)CC1C(=O)N(CCCn1ccnc1)Cc1ccccc1 (stereo not shown) [Example 28T] | 0.18 to 21 nM

Entry COc1cccc(CN2CCN(C(=O)NC3CCCCC3)[C@@H](C(=O)NCCc3cncn3Cc3ccc(C#N)cc3)C2)c1 [Example 26] needs its IC50 filled in; supply it.
0.18 to 1.5 nM

Entry N#Cc1ccc(Cn2cncc2CCNC(=O)[C@H]2CN(CC3CC4C=CC3C4)CCN2C(=O)NC2CCCCC2)cc1 (stereo partly shown) [Example 6] needs its IC50 filled in; supply it.
0.18 to 21 nM

Entry CC(=O)Nc1ccc(CN2CCN(C(=O)NC3CCCCC3)[C@@H](C(=O)NCCc3cncn3Cc3ccc(C#N)cc3)C2)cc1 [Example 20] needs its IC50 filled in; supply it.
0.18 to 1.5 nM

Entry O=C(C1CN(Cc2ccccc2)CCN1C(=O)NC1CCCCC1)N(CCCn1ccnc1)Cc1ccccc1 (stereo not shown) [Example 28S] needs its IC50 filled in; supply it.
0.18 to 21 nM

* * *

molecular target: partially purified rat brain farnesyl protein transferase (FPT) (Rattus norvegicus, UniProt Q02293+Q04631); construct: partially purified rat brain farnesyl protein transferase (FPT); from tissue; host or cells: rat brain; test: FPT IC50 in vitro enzyme assay (inhibition of Ras-CVLS farnesylation); format: biochemical; conditions: inhibition of Ras-CVLS famesylation; methods of WO/10515 or WO 95/10516
pIC50: −log10 of the molar value.
Entries and their pIC50

Worked cases, answers included:
N#Cc1ccc(Cn2cncc2CCNC(=O)C2CN(Cc3ccccc3)CCN2C(=O)c2ccccc2)cc1 (centres unmarked) [Example 28G] | 7.68 to 9.74
COc1ccccc1CN1CCN(C(=O)NC2CCCCC2)[C@@H](C(=O)NCCc2cncn2Cc2ccc(C#N)cc2)C1 | 8.82 to 9.74
CC(c1ccccc1)N1CCN(C(=O)NC2CCCCC2)[C@@H](C(=O)NCCc2cncn2Cc2ccc(C#N)cc2)C1 (some centres unmarked) | 7.68 to 9.74
N#Cc1ccc(Cn2cncc2CCNC(=O)[C@H]2CN(Cc3ccncc3)CCN2C(=O)NC2CCCCC2)cc1 | 7.68 to 9.74
N#Cc1ccc(Cn2cncc2CCNC(=O)C2CN(Cc3ccccc3)CCN2C(=O)CC2CCN(C(N)=O)CC2)cc1 (centres unmarked) [Example 28Q] | 7.68 to 9.74
N#Cc1ccc(Cn2cncc2CCNC(=O)C2CN(Cc3ccccc3)CCN2S(=O)(=O)Cc2ccccc2)cc1 (centres unmarked) [Example 28M] | 7.68 to 9.74
N#Cc1ccc(Cn2cncc2CCNC(=O)[C@H]2CN(Cc3cccc(Cl)c3)CCN2C(=O)NC2CCCCC2)cc1 | 8.82 to 9.74

The record that follows has no pIC50 shown yet.
Entry N#Cc1ccc(Cn2cncc2CCNC(=O)[C@H]2CN(Cc3ccccc3Cl)CCN2C(=O)NC2CCCCC2)cc1 needs its pIC50 filled in; supply it.
8.82 to 9.74
